The reported numbers originate from paper PMC4552634.

Tested on: P. falciparum stage V gametocytes
Set-up: BacTiter-Glo ATP luminescence viability of purified stage V gametocytes in 384-well plates, per cent inhibition versus DMSO
Conditions: 48 h, 5 µM; inhibitor
Among all 13,000 compounds or so, about 3,200 (25%) showed an effect of 50% or more. This is one part of the list.
Listed here are molecules together with their documented % Inhibition.
Give the quantity in %, number only.

CCCN1CCc2c(sc3nc(SCC(=O)Nc4ccc(C)cc4)n(-c4ccc(C)cc4)c(=O)c23)C1 : 5.583
N=C(N)NN=CC(=O)Nc1ccc(Cl)cc1 : 9.695
O=c1[nH]c2ccc3[nH]cccc3c2c1C=Nc1ccc(N2CCN(CCO)CC2)cc1 : -29.23
CCn1cc(C=C2Oc3c(ccc(O)c3CN3CCCCC3C)C2=O)c2ccccc21 (centres unmarked) : 27.57

Value of measured % Inhibition for the entry CCC(C)CN1C(=O)C(c2ccccc2)(c2ccccc2)N=C1N (centres unmarked) : -2.713

Value of measured % Inhibition for the entry Clc1ccc(-n2cnc3c(Nc4ccc(Oc5ccccc5)cc4)ncnc32)cc1Cl : 88.06

Value of measured % Inhibition for the entry CC(C)N1CCN(C(CN2CCN(CCCOc3cccc4ccccc34)CC2)c2ccc(F)cc2)CC1 (centres unmarked) : 68.95

Value of measured % Inhibition for the entry CC(C)CNCc1ccc(-c2ccc(CNC3CCN(Cc4ccccc4)CC3)cc2)cc1 : 73.02

Value of measured % Inhibition for the entry O=C(/C=C/c1ccc(Cl)c(Cl)c1)NCCCCCN1CCC(NC(=O)c2ccc3ccccc3c2)CC1 : -22.99

Value of measured % Inhibition for the entry CCCCc1cc(NCc2ccncc2)nc(Nc2ccc(OC)cc2)n1 : -13.59

Value of measured % Inhibition for the entry COc1ccc2ccccc2c1CCCCN1CCN(CC(c2ccc(F)cc2)N2CCC(N3CCCC3)CC2)CC1 (centres unmarked) : 9.799

Value of measured % Inhibition for the entry CCc1cc2c(=O)c(-c3nc(C)cs3)c(N)oc2c(CN2CCCCC2)c1O : 0.6377

Value of measured % Inhibition for the entry COc1cccc2cc(C(=O)N[C@@H](CC(C)C)C(=O)N[C@H](C=NN3CC(=O)NC3=O)CC(C)C)oc12 : 6.388

Value of measured % Inhibition for the entry Clc1ccc(NC(=NCCCCCCCN=C(Nc2ccc(Cl)cc2)Nc2ccc(Cl)cc2)Nc2ccc(Cl)cc2)cc1 : 128.8

Value of measured % Inhibition for the entry Cc1ccc(-c2cc(C(=O)Nc3ccc(S(=O)(=O)N4CCOCC4)cc3)[nH]n2)c(O)c1C : 74.46
